- target of assay: HLA-DR (DRA1*01:01 / DRB1*04:07), soluble knob-into-hole Fc heterodimer (human)
- procedure text: ELISA
pKd: −log10 of the molar value. No end group written: not given here.

binder	pKd
KPVSKMRMATPLLMQALPM (also: biotin-labeled) [biotin-labeled human Class II-associated Invariant Chain Peptide (Bio-CLIP)]	8.56
